Data origin, for the record: the supplement of paper PMC10681739

Molecular target: ETS1 (UniProt P14921)
Sequence: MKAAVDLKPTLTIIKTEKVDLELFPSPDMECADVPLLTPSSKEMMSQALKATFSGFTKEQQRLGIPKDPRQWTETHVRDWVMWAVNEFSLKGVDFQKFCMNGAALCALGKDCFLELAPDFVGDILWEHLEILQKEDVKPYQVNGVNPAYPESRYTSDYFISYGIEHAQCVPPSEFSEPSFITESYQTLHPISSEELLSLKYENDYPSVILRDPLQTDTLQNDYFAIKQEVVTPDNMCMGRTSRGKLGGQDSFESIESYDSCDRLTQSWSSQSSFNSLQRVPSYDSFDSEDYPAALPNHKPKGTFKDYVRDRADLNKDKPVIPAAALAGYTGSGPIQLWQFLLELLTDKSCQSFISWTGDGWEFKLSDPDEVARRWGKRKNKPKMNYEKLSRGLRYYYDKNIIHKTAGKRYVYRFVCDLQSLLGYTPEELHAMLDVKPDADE
Test: ETS1 binding intensity (PBM fluorescence), ETS1 alone (arbitrary fluorescence units); higher = stronger binding
Settings: ETS1 concentration 1 nM; RUNX1 concentration 0 nM
Over roughly 4,100 sequences, “arbitrary fluorescence units” has its median near 780; the highest 2% begin near 22,000. The full list was thinned out, with the highest values kept by preference.
Threshold check on ETS1 binding intensity: at or above 3000 gives MET, strictly below gives NOT MET.

TTGCTCCCGGAAGCCCCGCCCGTCCGTGGCTCCTGA :: NOT MET
CTCTTCCGGCCGCGAGGAGCGCGACAGCGGCCCCTG :: MET
GGAGCGCGCTGGGGACGTTTAAAGGAAATTTACAAT :: NOT MET
CTTTTTGATTTCCTCAAGCATCCCAGAAATACACAG :: NOT MET
TTCACGCTCCGTAAGCTCGCTCCTTCCGGGACGCAG :: NOT MET

Say whether CACTTCCTGCCCTCTTCCACTTTCAAAATCACATCA shows ETS1 binding intensity of 3000 or more.
MET

Next up: CGGGAATCCACGGAATTTACTGCCGGAAGTTCGGCG
NOT MET

Also, CGGGACAGCGACGGGCCAGGTGACCGGAAGAGGCCG please.
NOT MET

---

Molecular target: ETS1 (UniProt P14921)
Sequence: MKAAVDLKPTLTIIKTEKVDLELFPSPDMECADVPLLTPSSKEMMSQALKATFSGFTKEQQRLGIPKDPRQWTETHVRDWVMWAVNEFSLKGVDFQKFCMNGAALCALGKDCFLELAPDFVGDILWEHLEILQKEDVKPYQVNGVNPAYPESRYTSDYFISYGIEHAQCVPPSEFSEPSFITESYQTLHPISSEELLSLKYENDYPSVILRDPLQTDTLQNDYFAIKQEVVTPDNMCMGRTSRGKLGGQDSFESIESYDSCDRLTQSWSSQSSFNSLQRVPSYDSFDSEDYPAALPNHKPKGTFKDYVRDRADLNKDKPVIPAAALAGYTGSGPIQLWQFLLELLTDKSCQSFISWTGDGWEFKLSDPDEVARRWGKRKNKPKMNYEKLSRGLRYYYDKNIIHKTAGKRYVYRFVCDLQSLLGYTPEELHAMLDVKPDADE
Assay: ETS1 binding intensity (PBM fluorescence), ETS1 alone (arbitrary fluorescence units); higher = stronger binding
Conditions: ETS1 concentration 1 nM; RUNX1 concentration 0 nM
The full ranking holds about 4,100 sequences; the median of “arbitrary fluorescence units” is about 780, and the highest 2% start at about 22,000. Many of the other results were omitted from the sample, so the highest values are more common in it than they were.
# reported ETS1 binding intensity; entries follow
Please give the numeric answer without any surrounding text.

Consider the reported ETS1 binding intensity for these sequences:
TTTTTTCCGCCTGTAGGGTCACATTGGGGTTGATTG :: 2790
CCAACAGCAGCGCTACTCCCGGCCGCTTCCGCCTGG :: 748
TGTTGACTCAGGAAGATGATGGCTGAGGGGGCTGCA :: 509

Could you tell me which ETS1 binding intensity is on file for CTAGCTGTGGACAGGAAACGAGTGGATTTTGTGATC ?
3740

Same again, this time with TCAGGAGCCACGGACGGGCGGGGCTTCCGGGAGCAA
1170

Now the sequence GGGTCCTTCCGGGTTTTGTGTCGAATCTACGGCGGC
7400

Please do the same for GCTCGTTTGGGGTTACTGACATCCGGCCTTCATTTC as well.
5140

Item: GACCACTTCCTTTCTGTGTTTTGGGGTTTCACAACT
11900

Now this one: ATGGATGGGGTTGCTTGCGTGAGGAAATACTTGATG
524

GCGCCCCGCTTCCGGGGCCGCCCTAAACGGCGGCCG , same question.
10100
